Reference for the values: ChEMBL document CHEMBL3433997

# target_or_system: Hexose transporter 1 (Plasmodium falciparum) (UniProt O97467)
# test_summary: ST_JUDE_LEISH: Cytotoxicity at 2uM final concentration against transgenic Leishmania Mexicana promastigotes LmPfHT that are glucose transport deficient and complemented with the Plasmodium falciparum hexose transporter. Activity is measured by DNA content using SYBR green in vitro
# Assay type: functional

# molecule, inhibition
measured = [
    ("Fc1ccc2[nH]c(-c3ccc(-c4ccc(CNCc5cnn(-c6ccccc6)n5)cc4)cc3)nc2c1", "-1.57%"),
    ("COc1cc(N(Cc2ccccc2C)S(=O)(=O)Cc2ccccc2[N+](=O)[O-])c(OC)cc1Cl", "2.73%"),
    ("CC1CNC(c2ccc(NC(=O)c3ccc(C(=O)Nc4ccc(C5=NC(C)CN5)cc4)cc3)cc2)=N1 (stereo unspecified)", "7.31%"),
    ("O=C(Nc1ccccc1Cc1ccccc1)c1ccccc1C(F)(F)F", "1.68%"),
    ("O=C(NC1CCCCC1)N(Cc1ccc(-c2ccc(CNC3CCCC3)cc2)cc1)C1CCN(Cc2ccccc2)CC1", "3.96%"),
    ("CC(=O)Nc1cccc(C(=O)Nc2ccc(-c3cccc(-c4nc5cc(C(F)(F)F)ccc5[nH]4)c3)cc2)c1", "0.32%"),
    ("CCc1c(CCNCCCCCCNCCc2ccc(OC)c(OC)c2CC)ccc(OC)c1OC", "7.29%"),
    ("O=C(Nc1cccc(-c2nn3ccccc3c2-c2ccnc(Nc3ccc(-c4cc[nH]n4)cc3)n2)c1)c1c(F)cccc1F", "10.3%"),
    ("Cn1cc(C(=O)Nc2cccc(-c3cccc(-c4nc5cc(F)ccc5[nH]4)c3)c2)n(C)c1=O", "5.98%"),
    ("CCOc1cc(C(=O)Nc2cccnc2)cc(Br)c1OCCC(C)C", "-2.07%"),
    ("OC(CNc1ccnc(Nc2cccc(OCCCN3CCOCC3)c2)n1)c1ccccc1 (stereo unspecified)", "0.43%"),
    ("O=C(/C=C/c1ccc(Cl)c(Cl)c1)NC1CCC(CN2CCC(c3c[nH]c4ccncc34)CC2)CC1 (stereo unspecified)", "0.56%"),
    ("COc1ccc(CC(=O)NC(CCN2CCC3(CC2)CN(S(C)(=O)=O)c2ccccc23)c2ccc(Cl)c(Cl)c2)cc1OC (stereo unspecified)", "3.56%"),
    ("CCNc1cc(C(=O)N[C@@H](Cc2ccccc2)[C@H](O)CNC(C)C)cc(N2CC(c3ccccc3)CCS2(=O)=O)c1 (stereo partly specified)", "2.11%"),
    ("O=C(O)c1ccc(-c2cnc3ccc(NC4CCC(O)CC4)nn23)cc1 (stereo unspecified)", "0.39%"),
    ("Cc1[nH]c(C)c(-c2ccc(OCc3cc(F)cc(F)c3)nc2)c(=O)c1Br", "5.62%"),
    ("COc1cc(Nc2nc(N)c3cc(OC)c(OC)cc3n2)cc(OC)c1", "5.6%"),
    ("CCc1n[nH]c(C(=O)NC2CCN(CC3(c4ccc(OC)cc4)CCCCC3)CC2)c1C", "2.97%"),
    ("Cc1noc(-c2ccc3c(c2)CCN(CCC2CCC(NC(=O)/C=C/c4ccc(F)cc4)CC2)CC3)n1 (stereo unspecified)", "-1.07%"),
    ("CC(C)(C)c1ccc2[nH]c(-c3ccc(C(=O)NC4CCN(Cc5ccccc5)CC4)s3)nc2c1", "2.69%"),
    ("c1ccc(OCCCCN2CCCCC2)cc1", "0.56%"),
    ("COc1ccc(CCNc2ccnc3cc(Cl)ccc23)cc1OC", "2.36%"),
    ("Cc1ccc(/C=C/C(=O)NCCCCCN2CCC(c3c[nH]c4ccccc34)CC2)cc1", "5.57%"),
    ("CNC(=O)c1cnc(Nc2ccc(N3CCOCC3)cc2)nc1Nc1cccc(O)c1", "5.41%"),
    ("O=C(N[C@@H](Cc1ccccc1)C(=O)NC1CCCCCC1)c1ccc(O)c(-c2cccc(C(F)(F)F)c2)c1", "4.69%"),
    ("CCc1nn2c(Nc3ccncc3)cc(C)nc2c1-c1ccccc1", "3.33%"),
]
